Tested on: ADCK3
Construct: gene CABC1
Settings: concentration: 1 μM, replicates: in singlicate; n = 1;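 further: KINOMEscan kinase panel screen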
OBSERVATION_TYPE: %Inh
Don't forget the unit after the number, please.

Illustrative cases are given below, each with its answer.
>  <STRUCTURE>
FC(F)(F)c1ccc(-c2ncn(CCCN3CCOCC3)c2-c2ccncc2)cc1

>  <OBSERVATION_TYPE>
%Inh

>  <REPORTED_MEASUREMENT>
1%

$$$$
>  <STRUCTURE>
O=C(Nc1n[nH]c2nc(-c3ccccc3)c(Cl)cc12)C1CC1

>  <OBSERVATION_TYPE>
%Inh

>  <REPORTED_MEASUREMENT>
0%

$$$$
>  <STRUCTURE>
Nc1nccc2scc(-c3ccc4c(c3)CCN4C(=O)Cc3ccccc3)c12

>  <OBSERVATION_TYPE>
%Inh

>  <REPORTED_MEASUREMENT>
13%

$$$$
>  <STRUCTURE>
Cc1nn2c(=O)cc(N3CCOCC3)nc2n1Cc1cccc(Cl)c1Cl

>  <OBSERVATION_TYPE>
%Inh

>  <REPORTED_MEASUREMENT>
10%

$$$$

Alright, here's another molecule for you.
Problem: Give reported %Inh value for Nc1nc(N)c2nc(-c3ccccc3)[nH]c2n1
Solution: 0%

---

System: CSNK2A1
Conditions: concentration: 1 μM, replicates: in singlicate; n = 1
OBSERVATION_TYPE: %Inh (%)
Entry rule: numbers only, all in %.

Illustrative cases are given below, each with its answer.
>  <COMPOUND>
Cc1cccc(-c2cc(-c3c[nH]nc3-c3ccccn3)ccn2)c1

>  <TESTED_ON>
CSNK2A1

>  <REPORTED_MEASUREMENT>
0

$$$$
>  <COMPOUND>
COc1cc2ncn(-c3cc(OCCCc4ccccc4)c(C(N)=O)s3)c2cc1OC

>  <TESTED_ON>
CSNK2A1

>  <REPORTED_MEASUREMENT>
0

$$$$
>  <COMPOUND>
Nc1nc(N)c2nc(-c3ccccc3)[nH]c2n1

>  <TESTED_ON>
CSNK2A1

>  <REPORTED_MEASUREMENT>
14

$$$$
>  <COMPOUND>
CCc1ccc(-c2ccc3c(c2)-c2nn(C)cc2S(=O)(=O)N3C)cc1

>  <TESTED_ON>
CSNK2A1

>  <REPORTED_MEASUREMENT>
0

$$$$
>  <COMPOUND>
Nc1nccc2scc(-c3ccc4c(c3)CCN4C(=O)Cc3ccccc3)c12

>  <TESTED_ON>
CSNK2A1

>  <REPORTED_MEASUREMENT>
5

$$$$
>  <COMPOUND>
CN(C)c1cc(-c2ccc3c(N)n[nH]c3c2)nc(N)n1

>  <TESTED_ON>
CSNK2A1

>  <REPORTED_MEASUREMENT>
0

$$$$
>  <COMPOUND>
CCCC(=O)Nc1n[nH]c2ncc(-c3cccc4ccccc34)cc12

>  <TESTED_ON>
CSNK2A1

>  <REPORTED_MEASUREMENT>
0

$$$$
>  <COMPOUND>
COc1cc(Nc2nccc(N3CCC(NC(=O)C4COc5ccccc5O4)C3)n2)cc(OC)c1OC (stereo not drawn)

>  <TESTED_ON>
CSNK2A1

>  <REPORTED_MEASUREMENT>
0

$$$$

Alright, here's another compound for you.
Problem: Give reported %Inh value for CC(C)(C)c1ccc(C(=O)Nc2cn3cc(-c4ccccc4)ccc3n2)cc1
Solution: 15

---

Test system: GRK7
Details: concentration: 1 μM, replicates: in singlicate; n = 1
OBSERVATION_TYPE: %Inh (%)
Entry rule: numbers only, all in %.

Illustrative cases are given below, each with its answer.
>  <COMPOUND>
COC(=O)c1c(-c2ccccc2)c2cc(C)ccc2c(=O)n1Cc1ccccc1

>  <UNITS_TEXT>
%

>  <%Inh>
0

$$$$
>  <COMPOUND>
Cc1nc(N(C)[C@H]2CN(C(=O)CC#N)CC[C@H]2C)c2cc[nH]c2n1

>  <UNITS_TEXT>
%

>  <%Inh>
0

$$$$
>  <COMPOUND>
COc1ccc(CNC(=O)NC2CCN(c3ccnc(Nc4ccc(F)cc4)n3)C2)cc1 (stereo not drawn)

>  <UNITS_TEXT>
%

>  <%Inh>
0

$$$$

Problem: Give reported %Inh value for CCc1nc(-c2cccc(C)c2)c(-c2ccncc2)s1
Solution: 0

---

Measured %Inh, listed per entry.
Tested on: MKNK2
Details: concentration: 1 μM, replicates: in singlicate; n = 1
Entry rule: numbers only, all in %.

Illustrative cases are given below, each with its answer.
>  <STRUCTURE>
CCc1nc(-c2cccc(C)c2)c(-c2ccncc2)s1

>  <%Inh, %>
16

$$$$
>  <STRUCTURE>
COc1cccc(C2=C(Nc3cccc(C(=O)O)c3)C(=O)NC2=O)c1

>  <%Inh, %>
0

$$$$
>  <STRUCTURE>
CCC(=O)c1c(-c2ccccc2)c2cc(Cl)ccc2c(=O)n1Cc1cc(C(=O)NC2CC2)n(C)n1

>  <%Inh, %>
11

$$$$
>  <STRUCTURE>
COc1cc2ncn(-c3cc(OCc4ccncc4Br)c(C(N)=O)s3)c2cc1OC

>  <%Inh, %>
8

$$$$
>  <STRUCTURE>
CCCC(=O)Nc1n[nH]c2ncc(-c3cccc4ccccc34)cc12

>  <%Inh, %>
7

$$$$

Problem: Give reported %Inh value for C[C@@H]1CC[C@H](C(=O)NC2CCCCC2)CN1c1cc(-c2ccc3c(N)n[nH]c3c2)nc(N)n1
Solution: 18

Problem: Give reported %Inh value for COc1cc2ncn(-c3cc(OCc4ccc(S(C)(=O)=O)cc4)c(C(N)=O)s3)c2cc1OC
Solution: 12

Problem: Give reported %Inh value for CC(C)(C)c1ccc(C(=O)Nc2cn3cc(-c4ccccc4)ccc3n2)cc1
Solution: 13

Problem: Give reported %Inh value for COc1cc2ncn(-c3cc(OCCCc4ccccc4)c(C(N)=O)s3)c2cc1OC
Solution: 0

---

Test system: p38-delta
Settings: concentration: 1 μM, replicates: in singlicate; n = 1
Label Yes when %Inh < 20%; otherwise No.

>  <STRUCTURE>
FC(F)(F)c1ccc(-c2ncn(CCCN3CCOCC3)c2-c2ccncc2)cc1

>  <GROUP>
No

$$$$
>  <STRUCTURE>
CCn1c(-c2ccoc2)nc2cnccc21

>  <GROUP>
No

$$$$
>  <STRUCTURE>
Nc1nccc2scc(-c3ccc4c(c3)CCN4C(=O)Cc3ccccc3)c12

>  <GROUP>
Yes

$$$$
>  <STRUCTURE>
Nc1ncnc2c1ncn2-c1ccc(Cl)cc1

>  <GROUP>
No

$$$$

Problem: Consider the compound COc1ccc(-c2cc3c(C)nc(N)nc3n([C@H]3CC[C@H](OCCO)CC3)c2=O)cn1 . Is its %Inh strictly less than 20%?
Solution: Yes

Problem: Consider the compound COc1cc2ncn(-c3cc(OCCCc4ccccc4)c(C(N)=O)s3)c2cc1OC . Is its %Inh strictly less than 20%?
Solution: Yes

---

Test system: TYK2(JH1domain-catalytic)
Conditions: concentration: 1 μM, replicates: in singlicate; n = 1
OBSERVATION_TYPE: %Inh (%)
Entry rule: numbers only, all in %.

Illustrative cases are given below, each with its answer.
>  <MOLECULE>
Cc1ccccc1COc1cc(-n2cnc3cc(Cl)ccc32)sc1C(N)=O [GW813349]

>  <TESTED_ON>
TYK2(JH1domain-catalytic)

>  <%Inh, %>
5

$$$$
>  <MOLECULE>
Nc1n[nH]c2nnc(-c3ccccc3)c(-c3ccccc3)c12 [GW554060]

>  <TESTED_ON>
TYK2(JH1domain-catalytic)

>  <%Inh, %>
34

$$$$
>  <MOLECULE>
Cc1ccc(-c2ccc3c(ccc4sc5c(c43)NC[C@@H](C)N=C5N(C)C)n2)cn1

>  <TESTED_ON>
TYK2(JH1domain-catalytic)

>  <%Inh, %>
0

$$$$
>  <MOLECULE>
COc1cc(Nc2nccc(N3CCC(NC(=O)C4COc5ccccc5O4)C3)n2)cc(OC)c1OC (stereo not drawn) [GSK1379761]

>  <TESTED_ON>
TYK2(JH1domain-catalytic)

>  <%Inh, %>
81

$$$$
>  <MOLECULE>
Cl.NS(=O)(=O)c1cccc(Nc2cc(-c3ccc(F)cc3)n[nH]2)c1 [GW824645]

>  <TESTED_ON>
TYK2(JH1domain-catalytic)

>  <%Inh, %>
0

$$$$

Alright, here's another molecule for you.
Problem: Give reported %Inh value for C[C@@H]1CC[C@H](C(=O)NC2CCCCC2)CN1c1cc(-c2ccc3c(N)n[nH]c3c2)nc(N)n1 [GSK2291363]
Solution: 0
